Measured Target: T1, recombinant human Siglec-15 protein (Homo sapiens, UniProt Q6ZMC9)
T1 construct: purchased Bonopusbio CW70-50 ug
T1 sequence (Q6ZMC9 20-263 limits assumed): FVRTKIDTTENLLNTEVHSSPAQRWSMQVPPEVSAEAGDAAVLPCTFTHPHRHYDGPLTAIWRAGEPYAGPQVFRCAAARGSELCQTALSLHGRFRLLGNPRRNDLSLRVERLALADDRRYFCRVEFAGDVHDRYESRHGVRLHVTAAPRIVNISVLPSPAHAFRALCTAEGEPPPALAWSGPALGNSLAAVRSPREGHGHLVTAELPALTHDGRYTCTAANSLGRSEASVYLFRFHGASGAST
Experiment Notes: BIACORE surface plasmon resonance binding affinity
Recorded Conditions: SPR; antibody as ligand, human Siglec-15 as analyte; 1:1 Langmuir model
Readout: ka (M⁻¹ s⁻¹)

- S15B1-VH1 + VL2: humanized S15B1 antibody, humanized VH1 (SEQ ID NO: 103) with humanized VL2 (antibody, V domains shown) VH: QVQLVQSGAEVKKPGASVKVSCKASGYAFSSSWMNWVRQAPGQGLEWIGRIYPGHGETNYNGKFKDRVTMTADTSTSTVYMELSSLRSEDTAVYFCARVDNSDPYYFDYWGQGTTVTVSS VL: DIVLTQSPASLAVSPGQRATITCRASKSVSTSGYSYMHWYQQKPGQPPKLLIYLASNLESGVPARFSGSGSGTDFTLTINPVEAEDTATYYCQHGRELPFTFGGGTKLEIK: 3.54e+06
- S15B1-VH4 + VL1: humanized S15B1 antibody, humanized VH4 with humanized VL1 (antibody, V domains shown) VH: QVQLVQSGAEVKKPGASVKVSCKASGYAFSSSWMNWVKQAPGQGLEWIGRIYPGHGETNYNGKFKDRATMTADKSTSTVYMELSSLRSEDTAVYFCARVDNSDPYYFDYWGQGTTVTVSS VL: DIVLTQSPASLAVSPGQRATITCRASKSVSTSGYSYMHWYQQKPGQPPKLLIYLASNLESGVPARFSGSGSGTDFTLTINPVEAEDTANYYCQHGRELPFTFGGGTKLEIK: 4.1e+06
- S15B1-VH2 + VL2: humanized S15B1 antibody, humanized VH2 with humanized VL2 (antibody, V domains shown) VH: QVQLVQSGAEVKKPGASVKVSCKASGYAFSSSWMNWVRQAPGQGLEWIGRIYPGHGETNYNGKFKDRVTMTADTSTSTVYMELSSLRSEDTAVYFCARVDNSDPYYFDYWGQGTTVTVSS VL: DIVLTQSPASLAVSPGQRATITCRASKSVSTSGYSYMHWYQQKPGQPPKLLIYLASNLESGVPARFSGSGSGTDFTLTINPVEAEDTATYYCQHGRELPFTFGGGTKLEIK: 3.44e+06
- S15B1-VH4 + VL2: humanized S15B1 antibody, humanized VH4 with humanized VL2 (antibody, V domains shown) VH: QVQLVQSGAEVKKPGASVKVSCKASGYAFSSSWMNWVKQAPGQGLEWIGRIYPGHGETNYNGKFKDRATMTADKSTSTVYMELSSLRSEDTAVYFCARVDNSDPYYFDYWGQGTTVTVSS VL: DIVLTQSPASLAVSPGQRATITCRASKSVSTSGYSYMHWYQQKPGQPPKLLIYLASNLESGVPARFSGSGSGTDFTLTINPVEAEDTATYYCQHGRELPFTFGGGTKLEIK: 1.69e+06

Values were extracted from patent US20250361297A1.
